target: MERS-CoV 3CLpro (Middle East respiratory syndrome-related coronavirus, UniProt K9N7C7)
Sequence (K9N7C7 3248-3553): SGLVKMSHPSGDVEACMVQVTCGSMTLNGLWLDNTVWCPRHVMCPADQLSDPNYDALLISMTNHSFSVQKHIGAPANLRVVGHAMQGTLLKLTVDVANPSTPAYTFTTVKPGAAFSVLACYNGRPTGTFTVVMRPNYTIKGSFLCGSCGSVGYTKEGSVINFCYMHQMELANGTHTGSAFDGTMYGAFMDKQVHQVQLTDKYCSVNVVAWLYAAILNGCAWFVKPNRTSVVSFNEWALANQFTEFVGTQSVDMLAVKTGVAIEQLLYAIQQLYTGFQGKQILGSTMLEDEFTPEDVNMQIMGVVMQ
pIC50: −log10 of the molar value.
Class t: pIC50 at least 7. Class f: pIC50 below 7.

Qu. State whether the measured pIC50 reaches 7, counting equality as reaching it, for "CC[C@H](C)[C@H](NC(=O)C(C)(F)F)C(=O)N1C[C@@H]2CCC[C@@H]2[C@H]1C(=O)NN(C[C@@H]1CCNC1=O)C(=O)[C@H](F)Cl"
Ans. t

Qu. State whether the measured pIC50 reaches 7, counting equality as reaching it, for "CC(C)(C)[C@H](NC(=O)c1cc(C(F)(F)F)on1)C(=O)N1C[C@H]2[C@@H]([C@H]1C(=O)NN(C[C@@H]1CCNC1=O)C(=O)[C@H](F)Cl)C2(C)C"
Ans. f

Qu. State whether the measured pIC50 reaches 7, counting equality as reaching it, for "CC1(C)[C@@H]2[C@@H](C(=O)NN(C[C@@H]3CCNC3=O)C(=O)[C@H](F)Cl)N(C(=O)/C=C/c3cc(F)cc(F)c3)C[C@@H]21"
Ans. f

Qu. State whether the measured pIC50 reaches 7, counting equality as reaching it, for "CC(C)C[C@H](NC(=O)C(F)(F)F)C(=O)N1C[C@H]2[C@@H]([C@H]1C(=O)NN(C[C@@H]1CCNC1=O)C(=O)[C@H](F)Cl)C2(C)C"
Ans. f

Qu. State whether the measured pIC50 reaches 7, counting equality as reaching it, for CC[C@H](C)[C@H](NC(=O)C1(F)CC1)C(=O)N1C[C@@H]2CCC[C@@H]2[C@H]1C(=O)NN(C[C@@H]1CCCNC1=O)C(=O)[C@H](F)Cl [Example 170a]
Ans. f

Qu. State whether the measured pIC50 reaches 7, counting equality as reaching it, for "CC[C@H](C)[C@H](NC(=O)[C@@H](F)Cl)C(=O)N1C[C@@H]2CCC[C@@H]2[C@H]1C(=O)NN(C[C@@H]1CCCNC1=O)C(=O)[C@@H](F)Cl"
Ans. t

Qu. State whether the measured pIC50 reaches 7, counting equality as reaching it, for "CC(C)(C)[C@H](NC(=O)C(F)(F)F)C(=O)N1C[C@H]2[C@@H]([C@H]1C(=O)NN(Cc1cc[nH]n1)C(=O)[C@H](F)Cl)C2(C)C"
Ans. f

* * *

// each record: one item and its IC50 for MERS-CoV 3CLpro (Middle East respiratory syndrome-related coronavirus)
Respond numerically; units are µM and should not be typed.

IC50 in this record for "CC(C)(C)[C@H](NC(=O)C(F)(F)F)C(=O)N1C[C@@H]2CCC[C@@H]2[C@H]1C(=O)NN(C[C@@H]1CCNC1=O)C(=O)[C@H](F)Cl" : 0.07

IC50 in this record for "CC1(C)C[C@@H](C(=O)NN(C[C@@H]2CCNC2=O)C(=O)[C@H](F)Cl)N(C(=O)[C@@H](NC(=O)C2CC2)C(C)(C)C)C1" : 0.098

IC50 in this record for "CCCC(=O)N[C@H](C(=O)N1C[C@@H]2CCC[C@@H]2[C@H]1C(=O)NN(C[C@@H]1CCNC1=O)C(=O)[C@H](F)Cl)[C@@H](C)CC" : 0.152

IC50 in this record for "CC[C@H](C)[C@H](NC(=O)[C@@H](F)Cl)C(=O)N1C[C@H]2[C@@H]([C@H]1C(=O)NN(C[C@H]1CCCNC1=O)C(=O)[C@@H](F)Cl)C2(C)C" : 0.112

IC50 in this record for "CCC(=O)N[C@H](C(=O)N1C[C@@H]2CCC[C@@H]2[C@H]1C(=O)NN(C[C@@H]1CCNC1=O)C(=O)[C@H](F)Cl)[C@@H](C)CC" : 0.072

IC50 in this record for "CC(C)(C)[C@H](NC(=O)C(F)(F)F)C(=O)N1C[C@H]2[C@@H]([C@H]1C(=O)NN(CCC(N)=O)C(=O)[C@H](F)Cl)C2(C)C" : 0.073

IC50 in this record for "CCC(CC)[C@H](NC(=O)C1(F)CC1)C(=O)N1C[C@H]2[C@@H]([C@H]1C(=O)NN(C[C@@H]1CCNC1=O)C(=O)[C@H](F)Cl)C2(C)C" : 0.106

IC50 in this record for "CC(C)(C)[C@H](NC(=O)[C@H]1CC1(F)F)C(=O)N1C[C@@H]2CCC[C@@H]2[C@H]1C(=O)NN(C[C@@H]1CCNC1=O)C(=O)[C@@H](F)Cl" : 0.128

IC50 in this record for "CC(C)C(=O)N[C@H](C(=O)N1CC2(CC2)C[C@H]1C(=O)NN(C[C@@H]1CCNC1=O)C(=O)[C@H](F)Cl)C(C)(C)C" : 0.408

IC50 in this record for CC[C@H](C)[C@H](NC(=O)C(F)(F)F)C(=O)N1C[C@H]2[C@@H]([C@H]1C(=O)NN(C[C@@H]1CCCNC1=O)C(=O)[C@H](F)Cl)C2(C)C (single isomer, unassigned) [Example 165a] : 0.185

IC50 in this record for "CC[C@H](C)[C@H](NC(=O)C(C)(F)F)C(=O)N1C[C@H]2[C@@H]([C@H]1C(=O)NN(C[C@@H]1CCNC1=O)C(=O)[C@H](F)Cl)C2(C)C" : 0.056

IC50 in this record for "CCC(C)(C)[C@H](NC(=O)C1(F)CC1)C(=O)N1C[C@H]2[C@@H]([C@H]1C(=O)NN(C[C@@H]1CCNC1=O)C(=O)[C@@H](F)Cl)C2(C)C" : 0.152

IC50 in this record for "CC[C@H](C)[C@H](NC(=O)C1(F)CCC1)C(=O)N1C[C@H]2[C@@H]([C@H]1C(=O)NN(C[C@@H]1CCNC1=O)C(=O)[C@H](F)Cl)C2(C)C" : 0.071

IC50 in this record for "CC1(C)[C@@H]2[C@@H](C(=O)NN(C[C@@H]3CCNC3=O)C(=O)[C@H](F)Cl)N(C(=O)c3cc(F)cc(C(F)(F)F)c3)C[C@@H]21" : 0.315
